- target-entity: T1, recombinant YFV E protein (soluble E, sE; YFV Asibi strain) (Yellow fever virus, Asibi strain, UniProt Q6DV88 286-678)
- T1 construct: also called YFV E antigen; YFV E monomer
- T1 sequence (Q6DV88 286-678): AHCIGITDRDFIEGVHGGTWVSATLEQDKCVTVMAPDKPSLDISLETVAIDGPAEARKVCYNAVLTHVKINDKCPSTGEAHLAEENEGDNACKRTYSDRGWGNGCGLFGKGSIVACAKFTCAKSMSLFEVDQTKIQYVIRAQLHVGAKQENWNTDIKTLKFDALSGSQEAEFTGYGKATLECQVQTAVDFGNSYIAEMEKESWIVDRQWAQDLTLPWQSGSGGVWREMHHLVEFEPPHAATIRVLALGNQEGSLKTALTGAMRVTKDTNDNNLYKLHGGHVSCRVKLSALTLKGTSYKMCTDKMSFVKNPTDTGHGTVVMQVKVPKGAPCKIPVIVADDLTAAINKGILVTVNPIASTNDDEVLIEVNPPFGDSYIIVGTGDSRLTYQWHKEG
- procedure-summary: BLI monovalent (IgG on tip)
Entries and their pKd
In plain terms, pKd is the concentration in mol/L turned into minus its base-10 logarithm.

// known answers, use as guide
{"binder": "ADI-49188 (antibody, V domains shown, full-length IgG; also called Antibody Number 31) VH: EVQLLESGPGLVRPSGTLSLTCAVSGGSISTTDWWSWVRQPPGKGLEWIGEINQSGSTSYSPSFKSRVSISVDKSKRQFSLKLTSVTAADTAVYYCARDSWSGPTRNWFDPWGRGTLVTVSS VL: QSVVTQPPSVSAAPGQKVTISCSGRSSNIGNSDVSWYQQFPGRAPKLLIYDNDERPSGIPDRFSGSKSGTSATLDITGLQTGDEADYYCGTWDSSLGGVIFGGGTKVTVL", "pKd": 8.02}
{"binder": "ADI-42786 (antibody, V domains shown, full-length IgG; also called Antibody Number 15) VH: EVQLVESGPGLVKPSGTLSLTCAVSGGSISSSYWWSWVRQSPGKGLEWIGEVYHSGSTHYNPSLKSRVTISVDKSKNQFSLKLTSVTAADTAVYYCARDGEGHYYRSGDNWFDRWGQGTLVTVSS VL: QSVLTQPPSVSAAPGQKVTISCSGSSSNIGSNYVSWYQQFPGTAPKLLIYDNSKRPSGIPDRFSGSMSGTSATLGITGLQTGDEADYYCGTWDSSLSAVVFGGGTKVTVL", "pKd": 7.90}
{"binder": "ADI-49039 (antibody, V domains shown, full-length IgG; also called Antibody Number 1) VH: QVQLQESGPGLVKPSETLSLTCAVSGYSISSGFYWGWIRQPPGKGLEWIGSMYQSGITYYNPSLKSRVTISVDTSKSQFSLKLTSVTAADTAMYYCARNAPENYYGSGRESFDIWGQGTMVTVSS VL: QSVLTQPPSVSAAPGQKVTISCSGSSSNIGNNYVSWYQQLPGAAPKLLIYDNKKRPSGIPDRFSGSASGTSATMGITGLQTGDEADYYCGTWDSSLSAWVFGGGTKVTVL", "pKd": 6.38}

# input // returns reported pKd for input ADI-42144 (antibody, V domains shown, full-length IgG; also called Antibody Number 26) VH: QVQLVESGGGVVQPGRSLRLSCAASGFTFSSYTMHWVRQAPGKGLEWVAVISYDGSNKYYADSVKGRFTISRDNSKNTLYLQMNSLRAEDTAVYYCARGGDYGDYESNNPAEYFQHWGQGTLVTVSS VL: QSVLTQPPSVSGAPGQRVTISCTGSSSNIGAGYDVHWYQQLPGTAPKLLIYGNSNRPSGVPDRFSGSKSGTSASLAITGLQAEDEADYYCQSYDSSLSGHVVFGGGTKLTVL
# output 7.96
